We begin with a simple list: items and their reported inhibition.
# system.under.test: Virion infectivity factor (Human immunodeficiency virus type 1 group M subtype B (isolate BH10)) + Virion infectivity factor (Human immunodeficiency virus type 1 group M subtype B (isolate BRU/LAI)) + Virion infectivity factor (Human immunodeficiency virus type 1 group M subtype B (isolate PCV12)) + Virion infectivity factor (Human immunodeficiency virus type 1 group M subtype B (isolate HXB2)) + DNA dC->dU-editing enzyme APOBEC-3G (Homo sapiens) (UniProt P69720+P69721+P69722+P69723+Q9HC16)
# test.summary: inhibitors of Vif binding to APOBEC3G peptide, primary screen, biochemical, TR-FRET, GST-Vif 1-94, biotin-A3G peptide, dose response retest (AID 1117319);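 note: Vif residues 1-94 fused to GST binding biotinylated APOBEC3G peptide 110-148; 0% = full assay without inhibitor and 100% = GST in place of GST-Vif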
# stated.conditions: stronger effect = higher value
About 1,500 (0.58%) of roughly 260,000 compounds were called active. Another 5% or so got no clear call; they are omitted. Not all results are given here. Potency and affinity values are given separately.

molecule | inhibition [%]
O=S(=O)(c1ccc(NC(=S)N/N=C/c2ccc(N3CCOCC3)cc2)cc1)N1CCOCC1 | 0.51
C/C(=N\NC(=O)CNC(=O)c1ccco1)c1ccc(Br)cc1 | -0.8
COc1cc(/C=N/Nc2nc(=O)[nH]nc2C)cc([N+](=O)[O-])c1O | 5.18
Cc1cc(C)cc(OCC(=O)Nc2cc(C)on2)c1 | 0.63
CCC(=O)c1ccc(OCC(=O)OCC(=O)N2c3ccccc3NC(=O)C2(C)C)cc1 | 0.69
Cc1noc(C)c1COc1ccc(C(=O)OCC(=O)N2CC(=O)Nc3ccccc32)cc1 | 2.4
COc1cc(OC)nc(NC(=O)CN2CCN(c3ccc(F)cc3)CC2)n1 | 4.2
O=C(O)c1cnn2c(C(F)(F)F)cc(-c3ccco3)nc12 | 23
CCN(CC)S(=O)(=O)c1ccc(N2CC(C(=O)NCCC3=CCCCC3)CC2=O)cc1 (stereo not given) | -3.38
CC(=O)NCC(=O)NC(Cc1ccccc1)C(N)=O (stereo not given) | 18.9

* * *

# system.under.test: Virion infectivity factor (Human immunodeficiency virus type 1 group M subtype B (isolate BH10)) + Virion infectivity factor (Human immunodeficiency virus type 1 group M subtype B (isolate BRU/LAI)) + Virion infectivity factor (Human immunodeficiency virus type 1 group M subtype B (isolate PCV12)) + Virion infectivity factor (Human immunodeficiency virus type 1 group M subtype B (isolate HXB2)) + DNA dC->dU-editing enzyme APOBEC-3G (Homo sapiens) (UniProt P69720+P69721+P69722+P69723+Q9HC16)
# test.summary: inhibitors of Vif binding to APOBEC3G peptide, primary screen, biochemical, TR-FRET, GST-Vif 1-94, biotin-A3G peptide, dose response retest (AID 1117319);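 note: Vif residues 1-94 fused to GST binding biotinylated APOBEC3G peptide 110-148; 0% = full assay without inhibitor and 100% = GST in place of GST-Vif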
# stated.conditions: stronger effect = higher value
The whole screen tested about 260,000 compounds, of which about 1,500 (0.58%) were called active. Another 5% or so got no clear call; they are omitted. The list is a sample of the results. Measured potencies and affinities stand elsewhere.
Each record here notes measured inhibition.

compound | inhibition, %
Cc1cccc(Nc2ncc3c(n2)CC(c2ccco2)CC3=O)c1 (stereo unspecified) | 3.03
COc1ccc(N(CN2C(=O)C3CC=CCC3C2=O)C(=O)c2ccco2)cc1 (stereo unspecified) | 18.2
Cc1ccc(Nc2ncc3c(n2)CC(c2ccco2)CC3=O)c(C)c1 (stereo unspecified) | 18.1
CC(=O)Nc1ccc(S(=O)(=O)N2CCN(c3ccccn3)CC2)cc1 | 25
COc1ccccc1NC(=O)Cn1c(CCC(=O)O)ccc1-c1ccccc1 | -8.03
O=C(CSc1nnnn1-c1ccccc1)Nc1ncc2c(n1)CC(c1ccccc1)CC2=O (stereo unspecified) | 2.52
O=C(NCCc1ccccc1)c1nc2ncccn2n1 | 8.66
CCCN1C2CCCC1CC(NC(=O)c1cc(OC)c(OC)c(OC)c1)C2 (stereo unspecified) | 9.1
Cc1ccc(S(=O)(=O)N2CCN(Cc3ccccn3)CC2)cc1 | 0.21
O=C(O)CCc1ccc(-c2ccccc2)n1CC(=O)O | 6.57
COc1cc(-c2nnc(NC(=O)CCS(=O)(=O)c3ccccc3)o2)cc(OC)c1OC | 2.37
